Each record here notes measured cytotoxicity at 3.13 µM.
tested on: MRC5; assay: Cytotoxicity on MRC-5 cells at 3.13 uM; assay type: functional; details: Homo sapiens

- compound: "COc1ccc2nc3cc(Cl)ccc3c(NCCCN(CCCNc3c4ccc(Cl)cc4nc4ccc(OC)cc34)C(=O)C(CNC(=O)OCC3c4ccccc4-c4ccccc43)NC(=O)OC(C)(C)C)c2c1 (stereo unspecified)"
  assay_target: "MRC5"
  cytotoxicity at 3.13 µM: "55%"
- compound: "COc1ccc2nc3cc(Cl)ccc3c(NCCCN(CCCNc3c4ccc(Cl)cc4nc4ccc(OC)cc34)C(=O)C(C)NC(=O)OCC3c4ccccc4-c4ccccc43)c2c1 (stereo unspecified)"
  assay_target: "MRC5"
  cytotoxicity at 3.13 µM: "100%"
- compound: "COc1ccc2nc3cc(Cl)ccc3c(NCCCN(CCCNc3c4ccc(Cl)cc4nc4ccc(OC)cc34)C(=O)[C@@H](C)NC(=O)OC(C)(C)C)c2c1"
  assay_target: "MRC5"
  cytotoxicity at 3.13 µM: "81%"
- compound: "COc1ccc2nc3cc(Cl)ccc3c(NCCCN(CCCNc3c4ccc(Cl)cc4nc4ccc(OC)cc34)C(=O)C(CC(C)C)NC(=O)OC(C)(C)C)c2c1 (stereo unspecified)"
  assay_target: "MRC5"
  cytotoxicity at 3.13 µM: "42%"
- compound: "COc1ccc2nc3cc(Cl)ccc3c(NCCCN(CCCNc3c4ccc(Cl)cc4nc4ccc(OC)cc34)C(=O)CCN3CCCCC3)c2c1"
  assay_target: "MRC5"
  cytotoxicity at 3.13 µM: "42%"

Now let's try a different one.
So what does the record say about cytotoxicity at 3.13 µM for COc1ccc2nc3cc(Cl)ccc3c(NCCCCN(CCCNc3c4ccc(Cl)cc4nc4ccc(OC)cc34)C(=O)C(C)NC(=O)OC(C)(C)C)c2c1 (stereo unspecified) ?
0%

###

system: Trypanosoma cruzi; assay: Percentage of activity against Trypanosoma cruzi at 1.56 uM; format: functional
Reported Parasite load reduction values for the following compounds.
Value expressed in %; do not type the unit.

Looking for the measured Parasite load reduction of COc1ccc2nc3cc(Cl)ccc3c(NCCCN(CCCNc3c4ccc(Cl)cc4nc4ccc(OC)cc34)C(=O)C(C)NC(=O)OCC3c4ccccc4-c4ccccc43)c2c1 (stereo unspecified) , can you help?
0

Quick one: COc1ccc2nc3cc(Cl)ccc3c(NCCCN(CCCNc3c4ccc(Cl)cc4nc4ccc(OC)cc34)C(=O)C(CCCCNC(=O)OCC3c4ccccc4-c4ccccc43)NC(=O)OC(C)(C)C)c2c1 (stereo unspecified)
0

`COc1ccc2nc3cc(Cl)ccc3c(NCCCN(CCCNc3c4ccc(Cl)cc4nc4ccc(OC)cc34)C(=O)CCN3CCCCC3)c2c1` ?
40

Then this compound: COc1ccc2nc3cc(Cl)ccc3c(NCCCN(CCCNc3c4ccc(Cl)cc4nc4ccc(OC)cc34)C(=O)C(COC(C)=O)NC(=O)OC(C)(C)C)c2c1 (stereo unspecified)
0

Also need COc1ccc2nc3cc(Cl)ccc3c(NCCCN(CCCNc3c4ccc(Cl)cc4nc4ccc(OC)cc34)C(=O)C(C)N)c2c1 (stereo unspecified) , thanks.
0

Repeat for the following compound: `COc1ccc2nc3cc(Cl)ccc3c(NCCCN(CCCNc3c4ccc(Cl)cc4nc4ccc(OC)cc34)C(=O)CCC(=O)N3CCOCC3)c2c1`
0

###

tested on: Leishmania infantum; assay: Percentage of activity against Leishmania infantum 6.25 uM; assay type: functional
Assign labels as follows, please: Criterion met for Antileishmanial activity (% reduction of parasite load) below 60%; Criterion not met for Antileishmanial activity (% reduction of parasite load) equal to or exceeding 60%.

Hi there! Is Antileishmanial activity (% reduction of parasite load) for `COc1ccc2nc3cc(Cl)ccc3c(NCCCN(CCCNc3c4ccc(Cl)cc4nc4ccc(OC)cc34)C(=O)CCN3CCNCC3)c2c1` below 60%, do you know?
Criterion met

Further, for COc1ccc2nc3cc(Cl)ccc3c(NCCCN(CCCNc3c4ccc(Cl)cc4nc4ccc(OC)cc34)C(=O)C(C)N)c2c1 (stereo not given) ?
Criterion met

# repeat for COc1ccc2nc3cc(Cl)ccc3c(NCCCN(CCCNc3c4ccc(Cl)cc4nc4ccc(OC)cc34)C(=O)C(COC(C)=O)NC(=O)OC(C)(C)C)c2c1 (stereo not given)
Criterion not met

# iterate: COc1ccc2nc3cc(Cl)ccc3c(NCCCN(CCCNc3c4ccc(Cl)cc4nc4ccc(OC)cc34)C(=O)C(CC(=O)OC3CCCCC3)NC(=O)OC(C)(C)C)c2c1 (stereo not given)
Criterion not met

Another compound to check: `COc1ccc2nc3cc(Cl)ccc3c(NCCCCCCCCCCCCNc3c4ccc(Cl)cc4nc4ccc(OC)cc34)c2c1`
Criterion not met

Entry to check: `COc1ccc2nc3cc(Cl)ccc3c(NCCCN(CCCNc3c4ccc(Cl)cc4nc4ccc(OC)cc34)C(=O)CCC(=O)N3CCOCC3)c2c1`
Criterion met

Could you do the same for COc1ccc2nc3cc(Cl)ccc3c(NCCCN(CCCNc3c4ccc(Cl)cc4nc4ccc(OC)cc34)C(=O)C(COCc3ccccc3)NC(=O)OC(C)(C)C)c2c1 (stereo not given) , please?
Criterion not met

Try this compound too: COc1ccc2nc3cc(Cl)ccc3c(NCCCN(CCCNc3c4ccc(Cl)cc4nc4ccc(OC)cc34)C(=O)C(CNC(=O)OC(C)(C)C)NC(=O)OC(C)(C)C)c2c1 (stereo not given)
Criterion not met

Try this compound too: COc1ccc2nc3cc(Cl)ccc3c(NCCCN(CCCNc3c4ccc(Cl)cc4nc4ccc(OC)cc34)C(=O)C(CCCCNC(=O)OCC3c4ccccc4-c4ccccc43)NC(=O)OC(C)(C)C)c2c1 (stereo not given)
Criterion met

Try `COc1ccc2nc3cc(Cl)ccc3c(NCCCN3CCN(CCCNc4c5ccc(Cl)cc5nc5ccc(OC)cc45)CC3)c2c1` next.
Criterion met

Same question, COc1ccc2nc3cc(Cl)ccc3c(NCCCN(CCCNc3c4ccc(Cl)cc4nc4ccc(OC)cc34)C(=O)C(CC(=O)OCC3c4ccccc4-c4ccccc43)NC(=O)OC(C)(C)C)c2c1 (stereo not given) this time
Criterion met

Now the same for `COc1ccc2nc3cc(Cl)ccc3c(NCCCN(CCCNc3c4ccc(Cl)cc4nc4ccc(OC)cc34)C(=O)CCC(=O)O)c2c1`
Criterion met

Similarly, COc1ccc2nc3cc(Cl)ccc3c(NCCCN(CCCNc3c4ccc(Cl)cc4nc4ccc(OC)cc34)C(=O)C(CNC(=O)OCC3c4ccccc4-c4ccccc43)NC(=O)OC(C)(C)C)c2c1 (stereo not given) ?
Criterion not met

Same thing, different compound: `COc1ccc2nc3cc(Cl)ccc3c(NCCCCCCNc3c4ccc(Cl)cc4nc4ccc(OC)cc34)c2c1`
Criterion met
